Experiment: Plasma pharmacokinetics after single subcutaneous dose
Type: in vivo, rat
Details: female, Lewis, rat, plasma, sc; after single s.c. dose of unconjugated AMT 500 nmol/kg; read-out: Maximum concentration in plasma

molecule | Cmax
Nc1nc(N)c2nc(CNc3ccc(C(=O)N[C@@H](CCC(=O)O)C(=O)O)cc3)cnc2n1 [AMT, aminopterin] | 601 nM

* * *

Test: Plasma pharmacokinetics after single subcutaneous dose
Assay type: in vivo, rat
Details: female, Lewis, rat, plasma, sc; after single s.c. dose of unconjugated AMT 500 nmol/kg; read-out: Elimination half-life
measure-name: half-life

compound | endpoint-result
Nc1nc(N)c2nc(CNc3ccc(C(=O)N[C@@H](CCC(=O)O)C(=O)O)cc3)cnc2n1 [AMT, aminopterin] | ~2.33 h

* * *

Assay: Plasma pharmacokinetics after single subcutaneous dose
Assay type: in vivo, rat
Conditions: female, Lewis, rat, plasma, sc; after single s.c. dose of unconjugated AMT 500 nmol/kg; read-out: Area under the curve (converted)

compound | AUC
Nc1nc(N)c2nc(CNc3ccc(C(=O)N[C@@H](CCC(=O)O)C(=O)O)cc3)cnc2n1 | 1.02 µM·h
